B1: library; numbered along this chain (parent)
chain: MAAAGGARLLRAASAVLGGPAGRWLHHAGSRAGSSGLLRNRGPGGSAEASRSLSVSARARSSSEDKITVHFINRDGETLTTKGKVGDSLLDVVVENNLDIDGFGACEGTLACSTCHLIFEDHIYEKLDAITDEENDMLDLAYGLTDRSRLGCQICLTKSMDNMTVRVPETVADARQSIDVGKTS

# Variants of: B1
# protocol_notes: scaled log2 fold change in cell abundance, elesclomol vs control (0 = silent mean, 1 = nonsense mean) (scaled log2 ratio); higher = higher viability under elesclomol (loss of FDX1 cuproptosis function);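 further: variant abundance is its share of total variant reads in each endpoint sample, from next-generation sequencing of the integrated ORF PCR-amplified out of genomic DNA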
# measurement_context: with ABC1 FDX1 KO; elesclomol 5 nM; glucose 10 mM; 14 days
Note to self: values exactly at 0.1 are yes (1). So scaled log2 fold change at or above 0.1 is yes (1), below is no (0).

# alteration, label_value
records = [
    ("E125W", "no (0)"),
]

IN: // inclusive: scaled log2 fold change at least 0.1? input: S34R
OUT: no (0)

IN: // inclusive: scaled log2 fold change at least 0.1? input: A174G
OUT: no (0)

IN: // inclusive: scaled log2 fold change at least 0.1? input: E133M
OUT: no (0)

IN: // inclusive: scaled log2 fold change at least 0.1? input: E169Y
OUT: no (0)

IN: // inclusive: scaled log2 fold change at least 0.1? input: T80W
OUT: yes (1)

IN: // inclusive: scaled log2 fold change at least 0.1? input: L17T
OUT: yes (1)

IN: // inclusive: scaled log2 fold change at least 0.1? input: T145V
OUT: no (0)

Reference for the values: the supplement of paper PMC12855868
